Biological target: C-TgCEN1 (C-terminal domain, 95–169 aa) (Toxoplasma gondii)
Construct: C-terminal (C-TgCEN1, 95–169 aa); made in house
Sequence (A0A125YHX7 95-169): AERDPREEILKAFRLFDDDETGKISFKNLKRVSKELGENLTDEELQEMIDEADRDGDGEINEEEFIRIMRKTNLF
Assay: ITC titration of TgSFI1 peptides into C-TgCEN1
Format: binding
Details: 25 °C, 50 mM Tris-HCl, 150 mM KCl pH 7.5, 5 mM EGTA, mean ± SE of triplicate, dash = no binding observed, SEM
Where no end group is shown, it is not given here.
Below, each of the sequences is paired with its reported Kd value.
Give just the number in µM; leave the unit off.

sequence data	readout unit	Kd
LQRTLRDARIRAAWAAWR [R12]	µM	69.9

I have this sequence here, AEATVRERRVRRAFRAWR [R5] , and I need its recorded Kd.
47.8

Quick one: LATQARRQALLRRALQAWTL [R16]
9.1

----------
Biological target: TgCEN1 (recombinant, lacking the first 21 residues) (Toxoplasma gondii)
Construct: TgCEN1 (lacking the first 21 residues) and its N-terminal (N-TgCEN1, 22–94 aa) and C-terminal (C-TgCEN1, 95–169 aa) domains; made in house
Sequence (A0A125YHX7 22-169): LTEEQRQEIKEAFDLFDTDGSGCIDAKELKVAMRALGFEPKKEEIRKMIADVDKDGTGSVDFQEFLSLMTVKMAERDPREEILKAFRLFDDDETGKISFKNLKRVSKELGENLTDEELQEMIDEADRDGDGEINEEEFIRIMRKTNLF
Experiment: ITC titration of TgSFI1 peptides into TgCEN1
Assay type: binding
Conditions: Kd, Ca2+-bound TgCEN1, single exothermic event, order of magnitude in text
pKd: −log10 of the molar value. Where no end group is shown, it is not given here.
Quick list: pKd per entry.

sequence data	observed result
AEAAAFLLPLHRIFSRWR [R24]	~6.00

Shift focus to the following entry.
Return reported pKd; argument: VVEKQKRSSLRTAWRGWR [R31]
~6.00

----------
Target: TgCEN1 (recombinant, lacking the first 21 residues) (Toxoplasma gondii)
Construct: TgCEN1 (lacking the first 21 residues) and its N-terminal (N-TgCEN1, 22–94 aa) and C-terminal (C-TgCEN1, 95–169 aa) domains; made in house
Test: ITC titration of TgSFI1 peptides into TgCEN1
Assay type: binding
Conditions: Kd, 25 °C, 50 mM Tris-HCl, 150 mM KCl pH 7.5, 5 mM CaCl2, first site (n1) of two-step binding, mean ± SE of triplicate, SEM
Where no end group is shown, it is not given here.
metric name: Kd (nM)
Give the quantity in nM, number only.

I have this sequence here, LATQARRQALLRRALQAWTL [R16] , and I need its recorded Kd.
9

----------
Molecular target: C-TgCEN1 (C-terminal domain, 95–169 aa) (Toxoplasma gondii)
Construct: C-terminal (C-TgCEN1, 95–169 aa); made in house
Test: ITC titration of TgSFI1 peptides into C-TgCEN1
Type: binding
Conditions: 25 °C, 50 mM Tris-HCl, 150 mM KCl pH 7.5, 5 mM CaCl2, mean ± SE of triplicate, SEM
Where no end group is shown, it is not given here.
metric name: log10 of Kd (log10 of the value in µM)
# values: log10(Kd), units µM

Some solved cases for reference:
sequence data	log10 of Kd
AEATVRERRVRRAFRAWR [R5]	-0.05
VVEKQKRSSLRTAWRGWR [R31]	0.28
AEAAAFLLPLHRIFSRWR [R24]	0.41

Look up log10 of Kd: LATQARRQALLRRALQAWTL [R16]
-2.22

Next up: LQRTLRDARIRAAWAAWR [R12]
-0.40

Cool, now RVEAIGDRLSLRRGFVTWRL [R17]
0.43

Origin of the recorded values: paper PMC9406199
